The measurements presented in this section are drawn from patent US5468472A.

system: fungal tyrosinase; assay: in vitro inhibition test of the activity of tyrosinase (dopachrome formation, 475 nm); type: biochemical; conditions: inhibitor at 50 mol % with respect to tyrosine; lowering of maximum dopachrome (OD 475 nm at plateau) vs no inhibitor; pH 6.5, 25° C.
# binarize % change in maximum dopachrome vs no inhibitor: threshold -90% inclusive, high side 1, low side -1

The examples below pair each entry with its known result.
1) CC(C)Sc1ccc(O)cc1O = 1
2) Oc1ccc(SCCCN2CCOCC2)c(O)c1 = 1
3) Oc1ccc(SCc2ccccc2)c(O)c1 = -1
4) Oc1ccc(SCCSc2ccc(O)cc2O)c(O)c1 = 1
5) Oc1ccc(O)cc1 [hydroquinone, reference compound] = 1

In: Is % change in maximum dopachrome vs no inhibitor for `CCCSc1ccc(O)cc1O` at or above -90%?
Out: 1

In: Same question for `CCOC(=O)CSc1ccc(O)cc1O` please.
Out: -1
